Readings of pIC50 for the listed compounds
Target: Pim-2 (Homo sapiens (Human), UniProt Q9P1W9)
Sequence (Q9P1W9 whole entry): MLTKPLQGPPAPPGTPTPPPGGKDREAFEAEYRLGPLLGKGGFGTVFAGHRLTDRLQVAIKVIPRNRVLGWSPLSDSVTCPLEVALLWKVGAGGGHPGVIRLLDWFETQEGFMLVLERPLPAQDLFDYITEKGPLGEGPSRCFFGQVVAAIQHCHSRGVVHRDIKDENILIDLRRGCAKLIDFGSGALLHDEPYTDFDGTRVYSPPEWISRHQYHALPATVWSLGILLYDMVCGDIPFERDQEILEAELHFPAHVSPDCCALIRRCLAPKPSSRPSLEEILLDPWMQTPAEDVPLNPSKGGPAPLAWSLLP
Experiment: Pim enzyme assay (HTRF, phosphorylation of biotinylated-BAD (S112) peptide), Pim-2
Format: biochemical
Conditions: read-out: Pim2_IC50
By convention, pIC50 is the negative base-10 log of a molar concentration.

• O[C@H]1CCN(c2ccncc2Nc2ncc3ccc(-c4c(F)cccc4F)nn23)C[C@@H]1O (mixture of isomers) [Example 25] = 8.10

# ---- query compound ----
Per the record, N[C@H]1CCCN(c2ccncc2Nc2ncc3ccc(-c4c(F)cccc4F)nn23)C1 [Example 1, tris(2,2,2-trifluoroacetate)] has pIC50 of 9.30

----------
Test system: KMS-12-BM myeloma cell line
Assay: Pim cell assay: phospho-BAD (S112) and total BAD in KMS-12-BM cells
Type: cell-based
Conditions: 1 hour and 50 minutes incubation, tris(2,2,2-trifluoroacetate), read-out: KMS-12-BM IC50 IP
quantity.kind: IC50 (nM)
// note: answer is a bare numeric in nM

# example entries with known answers
- C[C@H]1CC[C@H](N)CN1c1ccncc1Nc1ncc2ccc(-c3c(F)cccc3F)nn12 (single isomer, unassigned) [Example 87, tris(2,2,2-trifluoroacetate)]: 48.8
- C[C@@H]1C[C@H](N)CN(c2ccncc2Nc2ncc3ccc(-c4ccccc4F)nn23)C1 (single isomer, unassigned) [Example 46, tris(2,2,2-trifluoroacetate)]: 52.1
- C[C@H]1CC[C@@H](N)CN1c1ccncc1Nc1ncc2ccc(-c3ncccc3F)nn12 (single isomer, unassigned) [Example 94, tris(2,2,2-trifluoroacetate)]: 14100

# ---- query compound ----
C[C@@H]1CCN(c2ccncc2Nc2ncc3ccc(-c4c(F)cccc4F)nn23)C[C@H]1N (single isomer, unassigned) [Example 100, tris(2,2,2-trifluoroacetate)] on KMS-12-BM myeloma cell line gives IC50 = 77.5

----------
Readings of IC50 for the listed compounds
Molecular target: Pim-2 (Homo sapiens (Human), UniProt Q9P1W9)
Assay: Pim enzyme assay (HTRF, phosphorylation of biotinylated-BAD (S112) peptide), Pim-2
Type: biochemical
Details: read-out: Pim-2 IC50 IP
Description: Full-length human cDNAs encoding Pim-1 (MGC ID 3913552) or Pim-2 (IMAGE ID 5092935) were purchased from Invitrogen, Carlsbad, Calif. These cDNAs were used as templates in PCR reactions to produce full-length DNA clones of the PIMs. […] The phosphorylation of biotinylated-BAD (S112) peptide by full length recombinant Pim-1, Pim-2, or Pim-3 protein was detected with streptavidin:Allophycocyanin (APC) conjugate and a europium (Eu) labeled antibody directed against phosphorylated-BAD (S112). […]
// note: answer is a bare numeric in nM

# example entries with known answers
• C[C@@H]1C[C@H](N)CN(c2ccncc2Nc2nnc3ccc(-c4c(F)cccc4F)nn23)C1 [Example 90, bis(2,2,2-trifluoroacetate)] = 3.9
• C[C@H]1CCN(c2ccncc2Nc2ncc3ccc(-c4c(F)cccc4F)nn23)C[C@H]1N (single isomer, unassigned) [Example 98, bis(2,2,2-trifluoroacetate)] = 15.7
• C[C@@H]1C[C@H](N)CN(c2ccncc2Nc2ncc3ccc(-c4nccs4)nn23)C1 [Example 62, bis(2,2,2-trifluoroacetate)] = 0.4
• C[C@@H]1CCN(c2ccncc2Nc2ncc3ccc(-c4c(F)cccc4F)nn23)C[C@H]1N (single isomer, unassigned) [Example 100, tris(2,2,2-trifluoroacetate)] = 0.2

# ---- query compound ----
Per the record, N[C@H]1CCCN(c2ccncc2Nc2nnc3ccc(-c4ncccc4F)nn23)C1 [Example 91, bis(2,2,2-trifluoroacetate)] has IC50 of 30.5
